From: ChEMBL document CHEMBL4680222

- EXPERIMENTAL_SYSTEM: NAD-dependent protein deacetylase sirtuin-3, mitochondrial (Homo sapiens) (UniProt Q9NTG7)
- Sequence (Q9NTG7 whole entry, the tested form may be a part): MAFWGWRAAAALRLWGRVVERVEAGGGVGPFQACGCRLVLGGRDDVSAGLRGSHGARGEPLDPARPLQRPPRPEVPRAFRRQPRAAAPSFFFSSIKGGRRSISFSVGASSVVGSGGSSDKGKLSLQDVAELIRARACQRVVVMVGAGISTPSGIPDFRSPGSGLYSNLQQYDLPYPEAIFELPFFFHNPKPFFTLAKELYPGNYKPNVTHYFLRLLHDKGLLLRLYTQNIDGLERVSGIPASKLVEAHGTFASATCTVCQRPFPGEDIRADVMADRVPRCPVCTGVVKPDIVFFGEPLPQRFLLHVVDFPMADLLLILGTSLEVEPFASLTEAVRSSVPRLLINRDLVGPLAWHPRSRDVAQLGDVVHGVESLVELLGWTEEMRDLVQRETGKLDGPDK
- TEST_METHOD_NOTES: Substrate activity at human N-terminal His-tagged SIRT3 (122 to 391 residues) expressed in Escherichia coli at 50 uM measured after 2 hrs in presence of NAD+ and trypsin by fluorescence assay
*1 amine or outer side, *2 acyl side, *3 side chain or, on linkers, in order; H or OH if unused. Where a SMILES comes first, the peptide text is derived from it. The star is where a group is joined. AMC = Cc1cc(=O)oc2cc(N*)ccc12; Suc = O=C(CCC(=O)[*:2])[*:1]; Decanoyl = CCCCCCCCCC(=O)*
PARAMETER_MEASURED: log10 Activity (log10 of the value in RFU)
Values reflect log10 of reported Activity (RFU).

(Q) Which log10 Activity value is on record for CC(=O)NCCCC[C@H](NC(=O)[C@H](CC(C)C)NC(=O)[C@H](CCCCN)NC(=O)[C@H](Cc1ccc(O)cc1)NC(C)=O)C(=O)Nc1ccc2c(C)cc(=O)oc2c1 (Ac-YKLK(Ac)-{AMC}) ?
(A) 0.99

(Q) So what's the measured log10 Activity for this one? CC(=O)N[C@@H](CO)C(=O)N[C@@H](CC(C)C)C(=O)NCC(=O)N[C@@H](CCCCNC(=O)CCC(=O)O)C(=O)Nc1ccc2c(C)cc(=O)oc2c1 (Ac-SLGK(Suc)-{AMC})
(A) 0.12

(Q) For CC(=O)NCCCC[C@H](NC(=O)[C@H](CCCNC(=N)N)NC(=O)[C@H](CO)NC(=O)[C@H](CC(N)=O)NC(C)=O)C(=O)Nc1ccc2c(C)cc(=O)oc2c1 (Ac-NSRK(Ac)-{AMC}) , what is its reported log10 Activity?
(A) -0.17

(Q) So what does the record say about log10 Activity for CC(=O)N[C@@H](Cc1cnc[nH]1)C(=O)N[C@@H](Cc1ccccc1)C(=O)N[C@@H](CO)C(=O)N[C@@H](CCCCNC(=O)CCC(=O)O)C(=O)Nc1ccc2c(C)cc(=O)oc2c1 (Ac-HFSK(Suc)-{AMC}) ?
(A) -0.05

(Q) Dear colleague, I am looking for the recorded log10 Activity of the following compound: CCCCCCCCCC(=O)NCCCC[C@H](NC(=O)[C@@H](NC(=O)[C@H](CO)NC(=O)[C@H](CO)NC(C)=O)[C@@H](C)CC)C(=O)Nc1ccc2c(C)cc(=O)oc2c1 (Ac-SSIK(Decanoyl)-{AMC})
(A) 0.21

(Q) Name the recorded log10 Activity for CCCCCCCCCC(=O)NCCCC[C@H](NC(=O)[C@H](CCCNC(=N)N)NC(=O)[C@H](CC(C)C)NC(=O)[C@H](CC(=O)O)NC(C)=O)C(=O)Nc1ccc2c(C)cc(=O)oc2c1 (Ac-DLRK(Decanoyl)-{AMC}) .
(A) 0.25

(Q) Looking for the measured log10 Activity of CC(=O)NCCCC[C@H](NC(=O)[C@H](CCCCN)NC(=O)[C@H](Cc1cnc[nH]1)NC(=O)[C@H](CCCNC(=N)N)NC(C)=O)C(=O)Nc1ccc2c(C)cc(=O)oc2c1 (Ac-RHKK(Ac)-{AMC}) , can you help?
(A) 0.21

(Q) Which measured log10 Activity value corresponds to CCCCCCCCCC(=O)NCCCC[C@H](NC(=O)[C@H](CCCCN)NC(=O)[C@@H]1CCCN1C(=O)[C@H](CC(N)=O)NC(C)=O)C(=O)Nc1ccc2c(C)cc(=O)oc2c1 (Ac-NPKK(Decanoyl)-{AMC}) ?
(A) 0.50

(Q) Fill blank: measured log10 Activity of the compound CCCCCCCCCC(=O)NCCCC[C@H](NC(=O)[C@H](CC(=O)O)NC(=O)[C@@H](NC(=O)[C@H](CCC(=O)O)NC(C)=O)[C@@H](C)O)C(=O)Nc1ccc2c(C)cc(=O)oc2c1 (Ac-ETDK(Decanoyl)-{AMC}) is ____.
(A) 0.27

(Q) Look up log10 Activity: CC[C@H](C)[C@H](NC(C)=O)C(=O)N[C@@H](CCCNC(=N)N)C(=O)N[C@H](C(=O)N[C@@H](CCCCNC(=O)CCC(=O)O)C(=O)Nc1ccc2c(C)cc(=O)oc2c1)[C@@H](C)CC (Ac-IRIK(Suc)-{AMC})
(A) 0.39

(Q) Fill in: log10 Activity of CCCCCCCCCC(=O)NCCCC[C@H](NC(=O)[C@H](CCCNC(=N)N)NC(=O)[C@H](C)NC(=O)[C@@H](NC(C)=O)[C@@H](C)O)C(=O)Nc1ccc2c(C)cc(=O)oc2c1 (Ac-TARK(Decanoyl)-{AMC}) is ___
(A) 0.03
